Data origin: paper doi:10.1101/318345v1

# system tested: ICL (Pseudomonas aeruginosa, UniProt Q9I0K4)
# Construct: full length, 531 residues, 59 kDa; His6-MBP fusion from E. coli DH5alpha, tag cleaved with Factor Xa; tetramer
# Sequence (Q9I0K4 whole entry, the tested form may be a part): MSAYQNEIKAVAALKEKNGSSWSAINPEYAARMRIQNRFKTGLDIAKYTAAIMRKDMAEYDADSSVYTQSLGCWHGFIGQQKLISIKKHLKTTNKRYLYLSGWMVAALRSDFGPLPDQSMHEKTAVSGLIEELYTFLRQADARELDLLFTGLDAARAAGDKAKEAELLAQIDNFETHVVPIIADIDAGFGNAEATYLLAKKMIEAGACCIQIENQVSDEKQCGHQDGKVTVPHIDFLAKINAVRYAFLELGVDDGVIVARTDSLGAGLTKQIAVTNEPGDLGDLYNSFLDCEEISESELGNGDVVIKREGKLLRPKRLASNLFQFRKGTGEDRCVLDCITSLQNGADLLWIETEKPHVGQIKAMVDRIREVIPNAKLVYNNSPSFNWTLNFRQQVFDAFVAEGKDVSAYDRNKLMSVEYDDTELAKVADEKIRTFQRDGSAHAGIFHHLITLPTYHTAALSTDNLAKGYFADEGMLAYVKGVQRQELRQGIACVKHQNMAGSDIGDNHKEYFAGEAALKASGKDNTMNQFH
# procedure details: ICL activity, spectrophotometric
For each record, check the reported Ki: if it is below 4000 µM write yes (1), else write no (0).

Sample answers from the record:
[
  {
    "molecule": "CC(=O)C(=O)O [pyruvate]",
    "system tested": "ICL (Pseudomonas aeruginosa, UniProt Q9I0K4)",
    "label class": "yes (1)"
  },
  {
    "molecule": "O=C(O)CC(=O)C(=O)O [oxaloacetate]",
    "system tested": "ICL (Pseudomonas aeruginosa, UniProt Q9I0K4)",
    "label class": "yes (1)"
  },
  {
    "molecule": "O=C(O)C[C@H](O)C(=O)O",
    "system tested": "ICL (Pseudomonas aeruginosa, UniProt Q9I0K4)",
    "label class": "no (0)"
  },
  {
    "molecule": "O=C(O)CO",
    "system tested": "ICL (Pseudomonas aeruginosa, UniProt Q9I0K4)",
    "label class": "yes (1)"
  }
]

# next molecule below
Answer whether the molecule O=C(O)CC(O)(CC(=O)O)C(=O)O [citrate] has Ki strictly less than 4000 µM no (0)

###

# system tested: ICD (Pseudomonas aeruginosa)
# Construct: full length, 45 kDa; His6-MBP fusion from E. coli DH5alpha, tag cleaved with Factor Xa; dimer
# Sequence (Q9I0L5 1-418): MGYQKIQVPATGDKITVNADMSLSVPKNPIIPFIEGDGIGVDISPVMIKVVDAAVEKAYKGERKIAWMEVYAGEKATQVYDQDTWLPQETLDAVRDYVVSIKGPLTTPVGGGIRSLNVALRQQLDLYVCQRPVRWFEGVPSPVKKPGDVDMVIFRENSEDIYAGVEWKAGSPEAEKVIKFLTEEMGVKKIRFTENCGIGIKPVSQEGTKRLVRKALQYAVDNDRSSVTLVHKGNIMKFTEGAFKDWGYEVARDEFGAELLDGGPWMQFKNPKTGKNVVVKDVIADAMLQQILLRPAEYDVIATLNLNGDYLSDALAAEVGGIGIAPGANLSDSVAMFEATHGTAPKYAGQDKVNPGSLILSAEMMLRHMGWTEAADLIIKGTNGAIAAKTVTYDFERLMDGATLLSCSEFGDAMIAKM
# procedure details: isocitrate dehydrogenase activity, NADPH at […] nm
quantity measured: pKi
Answers are plain numbers, as −log10 of the molar value.

Fill in: pKi of O=C(O)CCC(=O)C(=O)O [α-ketoglutarate] is ___ 3.18
